test system: CCRIS mutagenicity, Ames/micronucleus/aberration tests; assay: CCRIS mutagenicity studies; details: Test System: AMES SALMONELLA TYPHIMURIUM; Strain/Indicator: TA102; Metabolic Activation: RAT, LIVER, S-9, AROCLOR 1254; Method: PREINCUBATION
Calls of active or inactive are those of the source. No rule for the calls is given here.
PROPERTY LABEL: mutagenic call

Would you please look over these solved cases?
Complete the entry with mutagenic call for `[O-][Cl+]O` inactive; negative

Complete the entry with mutagenic call for `CC=O` inactive; negative

Complete the entry with mutagenic call for `CCCN(CCC)N=O` active; positive

Complete the entry with mutagenic call for `CC(=O)O` inactive; negative

Complete the entry with mutagenic call for `C=COC(C)=O` active; positive

***
Complete the entry with mutagenic call for `CC(=O)C=O` active; positive

Complete the entry with mutagenic call for `C=C1CC[C@H]2C[C@@H]1C2(C)C` inactive; negative

Complete the entry with mutagenic call for `[O-][Br+2]([O-])O` inactive; negative

Complete the entry with mutagenic call for `O=CC=O` active; positive

Complete the entry with mutagenic call for `Cl` inactive; negative

Complete the entry with mutagenic call for `OCl` inactive; negative

Complete the entry with mutagenic call for NC(CNCCCC[C@H](N)C(=O)O)C(=O)O (stereo partly drawn) inactive; negative

Complete the entry with mutagenic call for `CC1(C)[C@@H](O[C@H]2O[C@H](C(=O)O)[C@@H](O)[C@H](O)[C@H]2O[C@@H]2O[C@H](C(=O)O)[C@@H](O)[C@H](O)[C@H]2O)CC[C@]2(C)[C@H]3C(=O)C=C4[C@@H]5C[C@@](C)(C(=O)O)CC[C@]5(C)CC[C@@]4(C)[C@]3(C)CC[C@@H]12` inactive; negative

Complete the entry with mutagenic call for `Cn1cccc1` inactive; negative

Complete the entry with mutagenic call for `OCC(O)CO` inactive; negative

Complete the entry with mutagenic call for `c1ccsc1` inactive; negative

Complete the entry with mutagenic call for `O=C/C=C/C=C/C=O` inactive; negative

Complete the entry with mutagenic call for `CC(=O)C(C)=O` active; positive

Complete the entry with mutagenic call for `Cc1cnc2ccccc2n1` inactive; negative

Complete the entry with mutagenic call for `CCCC(=O)OCC` inactive; negative

Complete the entry with mutagenic call for `CCC=O` inactive; negative

Complete the entry with mutagenic call for `Nc1ccn([C@@H]2O[C@H](COP(=O)(O)O)[C@@H](O)[C@H]2O)c(=O)n1` inactive; negative

Complete the entry with mutagenic call for `CNc1ccccc1C(=O)OC` inactive; negative

---

System: CCRIS mutagenicity, Ames/micronucleus/aberration tests
Assay: CCRIS mutagenicity studies
Conditions: Test System: MOUSE LYMPHOMA; Strain/Indicator: L5178Y (TK+/TK-); Metabolic Activation: NONE; Method: SUSPENSION/PLATE
Source text: The CCRIS database contains chemical records with carcinogenicity, mutagenicity, tumor promotion, and tumor inhibition test results. It was developed by the National Cancer Institute (NCI). Data are derived from studies cited in primary journals, current awareness tools, NCI reports, and other sources. Test results have been reviewed by experts in carcinogenesis and mutagenesis. CCRIS provides historical information from the years 1985 - 2011. It is no longer updated. […]
Active and inactive are the calls of the source. How the calls were made is not given here. Where a SMILES comes first, the peptide text is derived from it. [ ]: non-standard residue; d: D form. pGlu = O=C1CC[C@@H](C(=O)O)N1; Thz = O=C(O)[C@@H]1CSCN1
Permitted responses: YES for active, NO for inactive

So what was the verdict on `N#CCCNCCC#N` in this test? NO

So what was the verdict on `CCCCOC(=O)c1ccccc1C(=O)OCc1ccccc1` in this test? NO

So what was the verdict on `Nc1ccc(S(=O)(=O)Nc2nccs2)cc1` in this test? NO

So what was the verdict on `O=C(O)CN(CC(=O)O)CC(=O)O` in this test? NO

So what was the verdict on COc1ccc(CNCC(O)COc2ccc3[nH]c(=O)ccc3c2)cc1OC (configuration not stated) in this test? YES

So what was the verdict on `Nc1ccc(S(=O)(=O)Nc2cnc3c(Cl)cccc3n2)cc1` in this test? NO

So what was the verdict on `C=C(Cl)CCl` in this test? YES

So what was the verdict on `O=[As](O)(O)O` in this test? YES

So what was the verdict on O=C1CC[C@@H](C(=O)N2CSC[C@H]2C(=O)O)N1 ([pGlu]-[Thz]-OH) in this test? NO

So what was the verdict on CC(O)c1ccccc1 (configuration not stated) in this test? YES

So what was the verdict on `COc1ccc(N)cc1N` in this test? YES

So what was the verdict on `OC[C@H]1O[C@@H](n2cnc3c(NC[C@H](O)COc4cccc5ccccc45)ncnc32)[C@H](O)[C@@H]1O` in this test? NO

So what was the verdict on `CNC(=O)NC` in this test? NO

So what was the verdict on `O=C(O)C(Cl)Cl` in this test? NO

So what was the verdict on `Cc1ccc(O)c(N)c1` in this test? YES

So what was the verdict on `Nc1nc(N)c(-c2ccccc2)s1` in this test? YES

So what was the verdict on CCCCC(CC)COS(=O)(=O)O (configuration not stated) in this test? NO

---

system: CCRIS mutagenicity, Ames/micronucleus/aberration tests; experiment: CCRIS mutagenicity studies; conditions: Test System: AMES SALMONELLA TYPHIMURIUM; Strain/Indicator: TA1537; Metabolic Activation: NONE; Method: STANDARD PLATE
The source made the active and inactive calls. The rule behind the calls is not given here.
Permitted responses: y for active, n for inactive

So what was the verdict on `CC[C@H](C)[C@@H]([C@@H](CC(=O)N1CCC[C@H]1[C@H](OC)[C@@H](C)C(=O)N[C@@H](Cc1ccccc1)c1nccs1)OC)N(C)C(=O)[C@@H](NC(=O)[C@H](C(C)C)N(C)C)C(C)C` in this test? n

So what was the verdict on `C=CC(=O)OCC` in this test? n

So what was the verdict on `O=[N+]([O-])c1cccc(NS(=O)(=O)c2cccc3cccnc23)c1` in this test? n

So what was the verdict on `NC(=O)c1cc[n+](COC[n+]2ccccc2/C=N/O)cc1` in this test? n

So what was the verdict on `OC[C@@H](O)[C@@H](O)CO` in this test? n

So what was the verdict on `C[Si](C)(C)Cl` in this test? n

So what was the verdict on `O=C(O)c1nn(Cc2ccc(Cl)cc2Cl)c2ccccc12` in this test? n

So what was the verdict on `[Co]` in this test? y

So what was the verdict on `COP(=S)(OC)Oc1ccc([N+](=O)[O-])c(C)c1` in this test? n

So what was the verdict on `O=C1CCC(=O)N1O` in this test? n

So what was the verdict on `CC(C)C(=O)Nc1snc2ccccc12` in this test? n

So what was the verdict on `O=c1[nH]cnc2[nH]ncc12` in this test? n

So what was the verdict on `O.O.O.O=C([O-])[C@H]([O-])[C@@H]([O-])C(=O)[O-].O=C([O-])[C@H]([O-])[C@@H]([O-])C(=O)[O-].[K+].[K+].[Sb+3].[Sb+3]` in this test? n

So what was the verdict on `CC=O` in this test? n

So what was the verdict on `Cl` in this test? n

So what was the verdict on CCN(CC)CCCC(C)Nc1ccnc2cc(Cl)ccc12 (stereo unspecified) in this test? n

So what was the verdict on `O=c1c(O)c(O)c1=O` in this test? n

So what was the verdict on `CCc1ccc2c(c1[N+](=O)[O-])C(=O)c1ccccc1C2=O` in this test? n

So what was the verdict on C=CCC1=C(C)C(OC(=O)[C@@H]2[C@@H](C=C(C)C)C2(C)C)CC1=O (stereo partly specified) in this test? n

So what was the verdict on `C1COCCOCCOCCOCCO1` in this test? n

So what was the verdict on `COC(=O)c1cc(OC)c2c(c1-c1c(C(=O)OC)cc(OC)c3c1OCO3)OCO2` in this test? n

So what was the verdict on `Cc1cc(N)c(C)c([N+](=O)[O-])c1N` in this test? n

So what was the verdict on `CC(=O)CC(=O)CCC(=O)O` in this test? n

So what was the verdict on `O=C(Nc1cc(Cl)cc(Cl)c1O)c1c(O)c(Cl)cc(Cl)c1Cl` in this test? n

So what was the verdict on `C=C(Cl)CCl` in this test? n

So what was the verdict on `Cc1ccc(C(=O)n2ncc(Cl)c(Cl)c2=O)cc1` in this test? n

---

tested on: CCRIS mutagenicity, Ames/micronucleus/aberration tests; assay: CCRIS mutagenicity studies; details: Test System: Mouse lymphoma; Strain/Indicator: L5178Y (tk+/tk-); Metabolic Activation: None; Method: Suspension/plate
Activity calls are given as the source filed them. No rule for the calls is given here.
Permitted responses: active, inactive

So what was the verdict on `c1ccsc1` in this test? active

So what was the verdict on `Cc1nc2ccccc2s1` in this test? active

So what was the verdict on `CC(=O)/C=C/c1ccccc1` in this test? active

So what was the verdict on `CCc1c(O)c(=O)ccn1CC` in this test? active

So what was the verdict on `O=C(C(=O)c1ccccc1)c1ccccc1` in this test? inactive

So what was the verdict on `C=C1N(C)c2ccccc2C1(C)C` in this test? inactive

So what was the verdict on `CC(C)OC(=O)c1cc(NC(=S)OC(C)C)ccc1Cl` in this test? inactive

So what was the verdict on `C=C1CC[C@H]2C[C@@H]1C2(C)C` in this test? inactive

So what was the verdict on `N#Cc1cc(Br)c(O)c(Br)c1` in this test? inactive

So what was the verdict on `Nc1cc(S(=O)(=O)O)cc2c1C(=O)/C(=N/Nc1ccc(-c3ccc(N/N=C4/C(=O)c5c(N)cc(S(=O)(=O)O)cc5C=C4S(=O)(=O)O)cc3)cc1)C(S(=O)(=O)O)=C2` in this test? inactive

So what was the verdict on `Cc1cc(-c2ccc(N/N=C3/C(=O)c4c(N)cc(S(=O)(=O)O)cc4C=C3S(=O)(=O)O)c(C)c2)ccc1N/N=C1/C(=O)c2c(N)cc(S(=O)(=O)O)cc2C=C1S(=O)(=O)O` in this test? inactive
